Recorded Test A rating (% disease control) for the following molecules
- Test system: Erysiphe graminis f. sp. tritici
- ASSAY_DETAILS: Test A: wheat powdery mildew, preventive spray on wheat seedlings, visual disease rating
- Type: in vivo
- MEASUREMENT_PARAMETERS: 200 ppm, 100 = 100% disease control, 0 = no control
EXPERIMENTAL_ENDPOINT: Test A rating (% disease control) (%)

1) COc1cc(OC)cc(-c2c(C(C)=O)cnc(C)c2-c2c(F)cccc2F)c1 ... 100
2) COc1cc(OC)cc(-c2c(C(C)C)cnc(C)c2-c2ccccc2F)c1 ... 100
3) COc1cc(OC)cc(-c2c(C(C)C)cnc(C)c2-c2ccccc2)c1 ... 99
4) COc1cc(OC)cc(-c2c(-c3ccc(F)cc3)cnc(C)c2-c2ccccc2F)c1 ... 21
5) COc1cc(OC)cc(-c2c(C(C)=O)cnc(C)c2-c2c(F)cc(OC)cc2F)c1 ... 98
6) COc1cc(OC)cc(-c2c(-c3ccccc3)c(C)nc(C)c2-c2ccc(F)cc2)c1 ... 78
7) COc1cc(OC)cc(-c2c(C(C)(C)O)c[n+]([O-])c(C)c2-c2ccccc2)c1 ... 25
8) CCOC(=O)c1cnc(C)c(-c2ccccc2)c1-c1cc(OC)c(OC)c(OC)c1 ... 0
9) C=C(C)c1cnc(C)c(-c2ccc(OC)cc2)c1-c1cc(OC)cc(OC)c1 ... 85
10) COc1cc(OC)cc(-c2c(C(C)(C)OC(C)=O)cnc(C)c2-c2c(F)cc(F)cc2F)c1 ... 98
11) COc1ccc(-c2c(C)ncc(C(C)=O)c2-c2cc(OC)cc(OC)c2)cc1 ... 86
12) COc1cc(OC)cc(-c2c(-c3ccc(F)cc3F)cnc(C)c2-c2ccc(F)cc2)c1 ... 95
13) COc1cc(OC)cc(-c2c(C(C)=O)cnc(C)c2-c2c(F)ccc(OC)c2F)c1 ... 100
14) CCOC(=O)c1cnc(CC)c(-c2ccccc2)c1-c1cc(OC)cc(OC)c1 ... 0
15) COc1cc(OC)cc(-c2c(C3CCCCC3)cnc(C)c2-c2ccc(F)cc2)c1 ... 91
16) CCOC(=O)c1cnc(C)c(-c2c(F)cc(OC)cc2F)c1-c1cc(OC)cc(OC)c1 ... 94

----------
Recorded Test A rating (% disease control) for the following molecules
- Tested on: Erysiphe graminis f. sp. tritici
- ASSAY_DETAILS: Test A: wheat powdery mildew, preventive spray on wheat seedlings, visual disease rating
- Assay type: in vivo
- MEASUREMENT_PARAMETERS: 200 ppm, 100 = 100% disease control, 0 = no control
EXPERIMENTAL_ENDPOINT: Test A rating (% disease control) (%)

1) COc1cc(OC)cc(-c2c(C(C)C)cnc(C)c2-c2c(F)cccc2F)c1 ... 99
2) CCc1ncc(C(C)=O)c(-c2cc(OC)cc(OC)c2)c1-c1ccccc1 ... 98
3) COc1cc(OC)cc(-c2c(-c3ccccc3F)c[n+]([O-])c(C)c2-c2ccccc2)c1 ... 79
4) CCOC(=O)c1cnc(C)c(-c2ccccc2F)c1-c1cc(OC)cc(OC)c1 ... 98
5) COc1cc(OC)cc(-c2c(C(C)=O)cnc(C)c2-c2c(F)ccc(F)c2F)c1 ... 100
6) COc1cc(OC)cc(-c2c(CN3CCCCC3)cnc(C)c2-c2c(F)cc(F)cc2F)c1 ... 93
7) CCC(C)c1cnc(C)c(-c2ccc(F)cc2)c1-c1cc(OC)cc(OC)c1 (centres unmarked) ... 78
8) CCOC(=O)c1cnc(C)c(-c2ccccc2)c1-c1cc(OC)ccc1Cl ... 97

----------
Recorded Test E rating (% disease control) for the following compounds
- System: Alternaria solani
- ASSAY_DETAILS: Test E: tomato early blight, preventive spray on tomato seedlings, visual disease rating
- Type: in vivo
- MEASUREMENT_PARAMETERS: 40 ppm (compound number followed by *)
EXPERIMENTAL_ENDPOINT: Test E rating (% disease control) (%)

1. COc1cc(OC)cc(-c2c(C(C)C#N)cnc(C)c2-c2c(F)cc(F)cc2F)c1 (stereo not shown) [Compound 125] ... 99
2. COc1cc(OC)cc(-c2c(-c3ccc(F)cc3)cnc(C)c2-c2c(F)cc(F)cc2F)c1 [Compound 93] ... 21
3. COc1cc(OC)cc(-c2c(C3CCSCC3)cnc(C)c2-c2ccc(F)cc2)c1 [Compound 84] ... 0
4. COc1cc(OC)cc(-c2c(-c3c(F)cccc3F)cnc(Cl)c2-c2c(F)cccc2F)c1 [Compound 76] ... 0

----------
- Test system: Puccinia recondite f. sp. tritici
- ASSAY_DETAILS: Test B: wheat leaf rust, preventive spray on wheat seedlings, visual disease rating
- Format: in vivo
- MEASUREMENT_PARAMETERS: 200 ppm, 100 = 100% disease control, 0 = no control
Recorded Test B rating (% disease control) for the following compounds
EXPERIMENTAL_ENDPOINT: Test B rating (% disease control) (%)

1) COc1cc(OC)cc(-c2c(Cn3cncn3)cnc(C)c2-c2c(F)cc(F)cc2F)c1 ... 100
2) COc1cc(OC)cc(-c2c(C3CCCCC3)cnc(C)c2-c2ccc(F)cc2)c1 ... 97
3) COc1cc(OC)cc(-c2c(C(C)(C)O)cnc(C)c2-c2c(F)ccc(OC)c2F)c1 ... 100
4) COc1cc(OC)cc(-c2c(CN3CCCCC3)cnc(C)c2-c2c(F)cc(F)cc2F)c1 ... 97
5) COc1cc(OC)cc(-c2c(C(C)C)cnc(C)c2-c2c(F)cccc2F)c1 ... 100
6) COc1cc(OC)cc(-c2c(C(C)=O)cnc(C)c2-c2ccccc2)c1 ... 0
7) COc1cc(OC)cc(-c2c(-c3ccc(F)cc3)cnc(C)c2-c2ccccc2F)c1 ... 54
8) COc1cc(OC)cc(-c2c(C(C)=O)cnc(C)c2-c2c(F)cccc2F)c1 ... 98
9) CCOC(=O)c1cnc(C)c(-c2ccccc2F)c1-c1cc(OC)cc(OC)c1 ... 90
10) COc1cc(OC)cc(-c2c(C(C)(C)O)c[n+]([O-])c(C)c2-c2ccccc2)c1 ... 0
11) COc1cc(OC)cc(-c2c(C3=CCCCC3)cnc(C)c2-c2ccc(F)cc2)c1 ... 95
12) CCC(O)c1cnc(C)c(-c2c(F)cc(F)cc2F)c1-c1cc(OC)cc(OC)c1 (centres unmarked) ... 100
13) COc1cc(OC)cc(-c2c(-c3c(F)cc(F)cc3F)cnc(Cl)c2-c2c(F)cc(F)cc2F)c1 ... 97
14) COc1ccc(-c2c(C)ncc(C(C)(C)O)c2-c2cc(OC)cc(OC)c2)cc1 ... 100
15) COc1cc(OC)cc(-c2c(-c3ccccc3)c(C)nc(C)c2-c2ccccc2F)c1 ... 80
16) COc1cc(OC)cc(-c2c(C(C)C)cnc(C)c2-c2ccccc2F)c1 ... 99
17) CCc1ncc(C(C)=O)c(-c2cc(OC)cc(OC)c2)c1-c1ccccc1 ... 80

----------
- Tested on: Rhizoctonia oryzae
- ASSAY_DETAILS: Test G: turf brown patch, preventive spray on creeping bent grass seedlings, visual disease rating
- Type: in vivo
- MEASUREMENT_PARAMETERS: 200 ppm, 100 = 100% disease control, 0 = no control
Recorded Test G rating (% disease control) for the following compounds
EXPERIMENTAL_ENDPOINT: Test G rating (% disease control) (%)

1) COc1cc(OC)cc(-c2c(C(C)(C)O)cnc(C)c2-c2ccccc2F)c1 [Compound 18] ... 47
2) COc1cc(OC)cc(-c2c(-c3ccc(F)cc3F)cnc(C)c2-c2ccc(F)cc2)c1 [Compound 38] ... 56
3) CCOC(=O)c1cnc(C)c(-c2ccccc2)c1-c1cc(OC)c(OC)c(OC)c1 [Compound 6] ... 0
4) COc1cc(OC)cc(-c2c(C3=CCCCC3)cnc(C)c2-c2ccc(F)cc2)c1 [Compound 46] ... 0
5) COc1cc(OC)cc(-c2c(C(C)C)cnc(C)c2-c2c(F)cccc2F)c1 [Compound 45] ... 99
6) COc1cc(OC)cc(-c2c(C(C)(C)O)cnc(C)c2-c2c(F)cccc2F)c1 [Compound 42] ... 86
7) CCOC(=O)c1cnc(C)c(-c2ccccc2)c1-c1cc(OC)ccc1Cl [Compound 7] ... 97
8) COc1cc(OC)cc(-c2c(C3CCCCC3)cnc(C)c2-c2ccc(F)cc2)c1 [Compound 47] ... 99

----------
- System: Septoria nodorum
- ASSAY_DETAILS: Test D: wheat glume blotch, preventive spray on wheat seedlings, visual disease rating
- Type: in vivo
- MEASUREMENT_PARAMETERS: 200 ppm, 100 = 100% disease control, 0 = no control
Recorded Test D rating (% disease control) for the following molecules
EXPERIMENTAL_ENDPOINT: Test D rating (% disease control) (%)

1) CCOC(=O)c1cnc(C)c(-c2ccccc2)c1-c1cc(OC)ccc1Cl ... 0
2) CCc1ncc(C(C)C)c(-c2cc(OC)cc(OC)c2)c1-c1ccccc1 ... 0
3) Cc1ncc(-c2ccccc2F)c(-c2cc(OC(F)F)cc(OC(F)F)c2)c1-c1ccc(F)cc1 ... 0
4) COc1cc(OC)cc(-c2c(C3CCOCC3)cnc(C)c2-c2ccc(F)cc2)c1 ... 92
5) CCC(C)(O)c1cnc(C)c(-c2ccc(F)cc2)c1-c1cc(OC)cc(OC)c1 (centres unmarked) ... 0
6) COc1cc(OC)cc(-c2c(C(C)(C)O)cnc(C)c2-c2c(F)ccc(OC)c2F)c1 ... 0
7) COc1cc(OC)cc(-c2c(C3CCCCC3)cnc(C)c2-c2ccc(F)cc2)c1 ... 0
8) COc1ccc(-c2c(C)ncc(C(C)(C)O)c2-c2cc(OC)cc(OC)c2)cc1 ... 73
9) COc1cc(OC)cc(-c2c(-c3ccc(F)cc3)cnc(C)c2-c2ccccc2)c1 ... 0
10) CCOC(=O)c1cnc(C)c(-c2ccccc2)c1-c1cc(OC)cc(OC)c1 ... 0
11) CCOC(=O)c1cnc(C)c(-c2c(F)cc(OC)cc2F)c1-c1cc(OC)cc(OC)c1 ... 0
12) COc1cc(OC)cc(-c2c(C(C)C)c[n+]([O-])c(C)c2-c2ccccc2)c1 ... 0
13) COc1cc(OC)cc(-c2c(C(C)O)cnc(C)c2-c2c(F)cc(F)cc2F)c1 (centres unmarked) ... 98
14) CCc1ncc(C(C)(C)O)c(-c2cc(OC)cc(OC)c2)c1-c1ccccc1 ... 0
15) COc1cc(OC)cc(-c2c(C(C)=O)cnc(C)c2-c2c(F)cc(OC)cc2F)c1 ... 81
16) COc1cc(OC)cc(-c2c(Cn3ccc(C(F)(F)F)n3)cnc(C)c2-c2c(F)cc(F)cc2F)c1 ... 0
17) COc1cc(OC)cc(-c2c(C(C)C)cnc(C)c2-c2c(F)cccc2F)c1 ... 0
